Tested on: OVCAR-5
Test: NCI tumour cell line growth inhibition, 48 h
Active and inactive are the calls of the source. Cut-off read from the data, not from the text of the source: active = GI50 up to about 1.1 µM and inactive = higher.

COMPOUND: COc1cc2c(c(OC)c1OC)-c1ccc(SC)c(=O)cc1C(CC(=O)Oc1ccccc1F)C2 (stereo not given)
GI50: 2.94 µM (inactive)
//
COMPOUND: COC(=O)[C@]1(C)CCC[C@@]2(C)C1CCC1=CC3(C(C)C)CCC12OO3 (stereo not given in full)
GI50: > 100 µM (inactive)
//
COMPOUND: N=C(N)NS(=O)(=O)c1ccc(NCc2c3ccccc3nc3ccccc23)cc1
GI50: 33.3 µM (inactive)
//
COMPOUND: Cc1c2ccncc2c(C)c2c1[nH]c1ccccc12
GI50: 1.46 µM (inactive)
//
COMPOUND: NC(=O)NC(=O)C1CCCCC1C(=O)O (stereo not given)
GI50: > 100 µM (inactive)
